# Assay System: Oxysterols receptor LXR-alpha (Homo sapiens)
# Sequence (Q13133 whole entry): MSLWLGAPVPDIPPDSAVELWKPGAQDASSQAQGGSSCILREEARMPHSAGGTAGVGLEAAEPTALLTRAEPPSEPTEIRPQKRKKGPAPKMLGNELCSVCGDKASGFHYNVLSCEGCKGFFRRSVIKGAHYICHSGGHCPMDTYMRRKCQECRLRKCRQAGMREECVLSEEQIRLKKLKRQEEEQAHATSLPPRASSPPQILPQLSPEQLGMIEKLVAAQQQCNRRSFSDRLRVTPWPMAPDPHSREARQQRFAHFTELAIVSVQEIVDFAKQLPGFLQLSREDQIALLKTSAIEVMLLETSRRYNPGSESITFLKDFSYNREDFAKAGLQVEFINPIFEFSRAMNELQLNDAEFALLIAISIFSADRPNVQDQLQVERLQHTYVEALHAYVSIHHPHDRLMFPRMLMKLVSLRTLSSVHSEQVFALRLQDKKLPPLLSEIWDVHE
# Assay Info: Antagonist activity at human LXRalpha expressed in HEK293 cells assessed as inhibition of beta-galactosidase activity by luciferase reporter gene assay
Parameter Measured: IC50 (µM)

{"Query Smiles": "O=C1c2ccccc2C(=O)N1c1cccc(CCc2ccc(O)c(O)c2)c1", "Unit Info": "µM", "IC50": 6.1}
{"Query Smiles": "COc1ccc(CCc2ccc(N3C(=O)c4c(Cl)c(Cl)c(Cl)c(Cl)c4C3=O)cc2)cc1", "Unit Info": "µM", "IC50": 8.8}
{"Query Smiles": "O=C1c2ccccc2C(=O)N1c1ccc(CCc2ccc(O)c(O)c2)cc1", "Unit Info": "µM", "IC50": 1.7}
{"Query Smiles": "COc1cccc(CCc2ccc(N3C(=O)c4c(Cl)c(Cl)c(Cl)c(Cl)c4C3=O)cc2)c1", "Unit Info": "µM", "IC50": 6.9}

1 = COc1ccc(CCc2ccccc2N2C(=O)c3c(Cl)c(Cl)c(Cl)c(Cl)c3C2=O)cc1OC
2 = COc1cccc(CCc2cccc(N3C(=O)c4c(Cl)c(Cl)c(Cl)c(Cl)c4C3=O)c2)c1
Q: Between 1 and 2 , whose recorded IC50 is greater? Answer = label.
Ans: 1

----------
# Assay System: Oxysterols receptor LXR-beta (Homo sapiens)
# Sequence (P55055 whole entry): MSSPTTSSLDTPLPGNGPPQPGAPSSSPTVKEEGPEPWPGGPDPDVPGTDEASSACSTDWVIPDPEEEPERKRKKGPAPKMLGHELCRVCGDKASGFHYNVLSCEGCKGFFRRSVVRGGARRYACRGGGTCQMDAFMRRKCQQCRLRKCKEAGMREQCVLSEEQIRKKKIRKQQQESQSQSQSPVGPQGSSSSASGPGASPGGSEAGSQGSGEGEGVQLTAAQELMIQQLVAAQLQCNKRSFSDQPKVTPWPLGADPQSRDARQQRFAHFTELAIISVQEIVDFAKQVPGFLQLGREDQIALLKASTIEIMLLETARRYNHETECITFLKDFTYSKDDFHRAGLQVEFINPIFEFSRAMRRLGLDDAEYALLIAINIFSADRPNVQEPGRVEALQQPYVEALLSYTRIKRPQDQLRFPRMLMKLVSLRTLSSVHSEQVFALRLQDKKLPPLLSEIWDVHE
# Assay Info: Antagonist activity at human LXRbeta expressed in HEK293 cells assessed as inhibition of beta-galactosidase activity by luciferase reporter gene assay
# Format: functional, cell-based
The entries below are paired with their reported IC50.

Observe how each entry below is paired with its result.
{"Query Smiles": "COc1ccc(CCc2ccc(N3C(=O)c4c(Cl)c(Cl)c(Cl)c(Cl)c4C3=O)cc2)cc1", "IC50": "> 30 µM"}
{"Query Smiles": "O=C1c2ccccc2C(=O)N1c1ccccc1CCc1ccc(O)c(O)c1", "IC50": "> 30 µM"}
{"Query Smiles": "COc1ccc(CCc2cccc(N3C(=O)c4c(Cl)c(Cl)c(Cl)c(Cl)c4C3=O)c2)cc1OC", "IC50": "> 30 µM"}
{"Query Smiles": "O=C1c2ccccc2C(=O)N1c1ccc(CCc2ccc(O)c(O)c2)cc1", "IC50": "> 3 µM"}
{"Query Smiles": "O=C1c2c(Cl)c(Cl)c(Cl)c(Cl)c2C(=O)N1c1cccc(/C=C/c2ccccc2)c1", "IC50": "> 30 µM"}

Q: Need IC50 of `O=C1c2c(Cl)c(Cl)c(Cl)c(Cl)c2C(=O)N1c1ccc(/C=C/c2ccc(O)c(O)c2)cc1` , thanks.
Ans: > 30 µM

Q: Dear colleague, I am looking for the recorded IC50 of the following compound: `COc1ccc(/C=C/c2ccc(N3C(=O)c4ccccc4C3=O)cc2)cc1OC`
Ans: > 30 µM

Q: Please look up its IC50: `O=C1c2ccccc2C(=O)N1c1ccc(/C=C/c2ccc(O)c(O)c2)cc1`
Ans: > 1 µM

Q: IC50 for `COc1ccc(CCc2ccccc2N2C(=O)c3c(Cl)c(Cl)c(Cl)c(Cl)c3C2=O)cc1OC` ?
Ans: 7.7 µM

Q: Look up IC50 for this compound: `COc1ccc(/C=C/c2ccc(N3C(=O)c4c(Cl)c(Cl)c(Cl)c(Cl)c4C3=O)cc2)cc1OC`
Ans: 14 µM

----------
# maps each entry to its pIC50
# Assay System: Oxysterols receptor LXR-beta (Homo sapiens, UniProt P55055)
# Assay Info: Antagonist activity at human LXRbeta expressed in HEK293 cells assessed as inhibition of beta-galactosidase activity by luciferase reporter gene assay
pIC50: −log10 of the molar value.

{"Query Smiles": "O=C1c2c(Cl)c(Cl)c(Cl)c(Cl)c2C(=O)N1c1cccc(/C=C/c2ccc(O)c(O)c2)c1", "pIC50": "< 4.52"}
{"Query Smiles": "COc1cccc(CCc2cccc(N3C(=O)c4c(Cl)c(Cl)c(Cl)c(Cl)c4C3=O)c2)c1", "pIC50": "< 4.52"}

Q: // returns reported pIC50 for input `COc1ccc(/C=C/c2cccc(N3C(=O)c4c(Cl)c(Cl)c(Cl)c(Cl)c4C3=O)c2)cc1OC`
Ans: < 4.52

----------
# Assay Info: Inhibition of Saccharomyces sp. alpha-glucosidase assessed as p-nitrophenol release
Parameter Measured: IC50

{"Query Smiles": "COc1ccc(CCc2ccc(N3C(=O)c4ccccc4C3=O)cc2)cc1OC", "IC50": "> 100 µM"}
{"Query Smiles": "COc1ccc(CCc2ccc(N3C(=O)c4c(Cl)c(Cl)c(Cl)c(Cl)c4C3=O)cc2)cc1", "IC50": "> 100 µM"}

Q: Look up IC50 for this compound: `O=C1c2c(Cl)c(Cl)c(Cl)c(Cl)c2C(=O)N1c1ccc(/C=C/c2ccc(O)c(O)c2)cc1`
Ans: > 100 µM

Q: Quick check: IC50 of `O=C1c2ccccc2C(=O)N1c1ccccc1CCc1ccc(O)c(O)c1` ?
Ans: > 100 µM

Q: Field request: IC50 | item: `O=C1c2ccccc2C(=O)N1c1cccc(CCc2ccccc2)c1`
Ans: > 100 µM

Q: Look up IC50: `COc1ccc(CCc2ccccc2N2C(=O)c3ccccc3C2=O)cc1OC`
Ans: > 100 µM

Q: For the compound shown here, `COc1ccc(CCc2ccccc2N2C(=O)c3c(Cl)c(Cl)c(Cl)c(Cl)c3C2=O)cc1OC` , give the reported IC50.
Ans: > 100 µM

Q: Returns the measured IC50 for the input compound. Input: `O=C1c2c(Cl)c(Cl)c(Cl)c(Cl)c2C(=O)N1c1cccc(CCc2ccc(O)cc2)c1`
Ans: > 100 µM

Q: // IC50 lookup, key: `COc1ccc(/C=C/c2ccc(N3C(=O)c4ccccc4C3=O)cc2)cc1OC`
Ans: > 100 µM

Q: Need IC50 of `COc1cccc(CCc2cccc(N3C(=O)c4c(Cl)c(Cl)c(Cl)c(Cl)c4C3=O)c2)c1` , thanks.
Ans: 69 µM

Q: # lookup: IC50 of `COc1ccc(CCc2ccc(N3C(=O)c4ccccc4C3=O)cc2)cc1`
Ans: > 100 µM

Q: Query (compound): `O=C1c2c(Cl)c(Cl)c(Cl)c(Cl)c2C(=O)N1c1ccc(/C=C/c2ccccc2)cc1` ; field requested: IC50
Ans: 21 µM

----------
# Assay System: Oxysterols receptor LXR-alpha (Homo sapiens)
# Assay Info: Antagonist activity at human LXRalpha expressed in HEK293 cells assessed as inhibition of beta-galactosidase activity by luciferase reporter gene assay
pIC50: −log10 of the molar value.
Parameter Measured: pIC50

{"Query Smiles": "COc1ccc(/C=C/c2ccc(N3C(=O)c4c(Cl)c(Cl)c(Cl)c(Cl)c4C3=O)cc2)cc1OC", "pIC50": "< 4.70"}
{"Query Smiles": "O=C1c2c(Cl)c(Cl)c(Cl)c(Cl)c2C(=O)N1c1ccc(CCc2ccccc2)cc1", "pIC50": "< 4.52"}

Kindly consider the entry below.
Q: Please look up its pIC50: `O=C1c2ccccc2C(=O)N1c1ccccc1CCc1ccc(O)c(O)c1`
Ans: 5.01
